Answer each item with its documented Selectivity ratio.
- tested-target: Cathepsin (L and K) (Homo sapiens) (UniProt P43235+P07711)
- assay-name: Selectivity for Cathepsin L over Cathepsin K
- Type: protein assay
# answer = number (no unit)

Ask: For the compound N#CCNC(=O)[C@@H]1CCCC[C@H]1CSc1ccc(N)cc1 (mixture of isomers) , what Selectivity ratio is on record?
Reply: 350

Ask: Let us now turn to N#CCNC(=O)[C@@H]1CCCC[C@H]1CSc1ccc(I)cc1 (relative stereo)
Reply: 52

Ask: Let us now turn to CSc1ccc(SC[C@@H]2CCCC[C@H]2C(=O)NCC#N)cc1 (racemic)
Reply: 2200

Ask: Let us now turn to N#CCNC(=O)[C@@H]1CCCC[C@H]1CSc1ccccc1 (racemic)
Reply: 150

Ask: Let us now turn to CSc1ccc(-c2ccccc2[C@@H]2CCCC[C@H]2C(=O)NCC#N)cc1 (racemic)
Reply: 2800

Ask: Let us now turn to CSc1ccc(-c2ccccc2C2CCC(Cl)(Cl)CC2C(=O)NCC#N)cc1 (racemic)
Reply: 450

Ask: Let us now turn to Cc1ccc(SC[C@@H]2CCCC[C@H]2C(=O)NCC#N)cc1 (racemic)
Reply: 110

Ask: Let us now turn to CSc1ccc(-c2ccccc2C2CCC(F)CC2C(=O)NCC#N)cc1 (racemic; form 1)
Reply: 1600

Ask: Let us now turn to N#CCNC(=O)[C@@H]1CCCC[C@H]1CSc1ccc(Br)cc1 (racemic)
Reply: 71

Ask: Let us now turn to CSc1ccc(-c2ccccc2C2CCC(F)CC2C(=O)NCC#N)cc1 (racemic; form 2)
Reply: 2000

Ask: Let us now turn to CSc1ccc(-c2ccccc2C2CCC(F)(F)CC2C(=O)NCC#N)cc1 (racemic)
Reply: 880

Ask: Let us now turn to CSc1ccc(S(=O)(=O)C[C@@H]2CCCC[C@H]2C(=O)NCC#N)cc1 (mixture of isomers)
Reply: 740

Ask: Let us now turn to N#CCNC(=O)[C@@H]1CCCC[C@H]1CSc1ccc(F)cc1 (mixture of isomers)
Reply: 120

Ask: Let us now turn to N#CCNC(=O)[C@@H]1CCCC[C@H]1CSc1ccc(Cl)cc1 (racemic)
Reply: 120

Ask: Let us now turn to COc1ccc(SC[C@@H]2CCCC[C@H]2C(=O)NCC#N)cc1 (racemic)
Reply: 810

Ask: Let us now turn to "CSc1ccc(-c2ccccc2[C@@H]2CCC(F)(F)C[C@H]2C(=O)NCC#N)cc1"
Reply: 780

Ask: Let us now turn to N#CCNC(=O)[C@@H]1CCCC[C@H]1CSc1ccc(O)cc1 (racemic)
Reply: 1700
